- target_entity: Short transient receptor potential channel 4 (Mus musculus, UniProt Q9QUQ5)
- Sequence (Q9QUQ5 whole entry): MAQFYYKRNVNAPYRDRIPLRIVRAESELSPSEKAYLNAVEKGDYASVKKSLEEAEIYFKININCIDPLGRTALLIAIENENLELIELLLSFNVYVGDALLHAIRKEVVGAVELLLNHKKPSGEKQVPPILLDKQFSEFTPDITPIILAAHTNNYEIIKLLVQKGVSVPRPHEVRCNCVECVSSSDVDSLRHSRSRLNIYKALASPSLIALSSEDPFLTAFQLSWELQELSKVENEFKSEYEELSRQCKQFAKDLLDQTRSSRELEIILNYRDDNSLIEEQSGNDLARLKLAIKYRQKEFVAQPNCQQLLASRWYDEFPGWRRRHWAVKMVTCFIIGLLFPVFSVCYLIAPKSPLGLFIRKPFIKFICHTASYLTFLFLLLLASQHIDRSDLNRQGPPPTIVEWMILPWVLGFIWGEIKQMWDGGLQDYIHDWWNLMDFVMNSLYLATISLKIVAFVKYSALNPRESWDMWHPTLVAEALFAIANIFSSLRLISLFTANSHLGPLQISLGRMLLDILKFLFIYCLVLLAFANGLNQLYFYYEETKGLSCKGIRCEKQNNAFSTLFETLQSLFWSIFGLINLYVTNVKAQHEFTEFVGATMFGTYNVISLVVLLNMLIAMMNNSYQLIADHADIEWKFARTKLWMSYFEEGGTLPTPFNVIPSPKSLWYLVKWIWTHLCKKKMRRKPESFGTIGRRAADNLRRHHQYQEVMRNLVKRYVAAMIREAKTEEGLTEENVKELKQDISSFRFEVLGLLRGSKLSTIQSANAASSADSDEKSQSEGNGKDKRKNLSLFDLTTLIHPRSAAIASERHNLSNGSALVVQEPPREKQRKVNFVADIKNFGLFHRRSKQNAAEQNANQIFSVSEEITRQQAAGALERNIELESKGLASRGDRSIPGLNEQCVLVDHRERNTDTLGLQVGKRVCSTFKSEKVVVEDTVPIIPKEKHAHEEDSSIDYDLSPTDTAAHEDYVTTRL
- assay_info: mouse TRPC4 channel activators, dose response, cell-based, HEK293 TRPC4/mu-opioid, Fluo-4 calcium (AID 434937)
- Format: functional
Calls of active or inactive are those of the source.
Entries annotated with measured EC50

Worked examples, 4 molecules total:
INSERT INTO assay_data (molecule, experimental_result) VALUES
  ('c1ccc2sc(C3CCCNC3)nc2c1 (stereo not given)', '9.3 nM (active)'),
  ('Cc1cccc(C(=O)NC(=S)NNC(=O)c2ccccc2Cl)c1', '1680 nM (active)'),
  ('Cc1nc(NCC(c2ccccc2)N(C)C)c2c(C)c(C)sc2n1 (stereo not given)', '335 nM (active)'),
  ('CN(CCOc1ccc(Cl)cc1)CC(O)c1ccccc1 (stereo not given)', '1880 nM (active)');

Here is another molecule to look at.
Q) So what does the record say about EC50 for Cc1sc2ncnc(NCC(c3ccccc3)N(C)C)c2c1C (stereo not given) ?
A) 237 nM (active)

----------
- assay_info: microbe, parasite or virus in culture
- Format: functional
- experimental_setup: Mycobacterium tuberculosis
Active and inactive are the calls of the source.
Overview of reported CC50 across a group of molecules:

Example cases with answers are listed next.
INSERT INTO results (molecule, experimental_result) VALUES
  ('Oc1c(C(c2ccccc2Cl)N2CCCC2)ccc2cccnc12 (stereo not given)', '30.5 µM (active)'),
  ('O=C(C=C=Nc1ccccc1)C(=O)N=C=Cc1ccccc1', '16.6 µM (active)'),
  ('CCOC(=O)[C@@H]1[C@H]2COc3cc(OC)ccc3[C@H]2N2C(=O)N(c3ccc(C(F)(F)F)cc3)C(=O)[C@]12C', '13.2 µM (active)'),
  ('Cc1cc(-n2c(C)cc(C(=O)COc3ccc4ccc(=O)oc4c3)c2C)no1', '> 40 µM (active)');

Please find the next molecule below.
Q) Could you tell me which CC50 is on file for `Cc1cc(NC(=O)c2sccc2C)n(-c2nc3ccccc3[nH]2)n1` ?
A) 28.5 µM (active)

----------
- target_entity: Cytochrome P450 3A4 (Homo sapiens);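 also: confirmatory qHTS run detecting inhibitors and substrates of CYP3A4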
- Sequence (P08684 whole entry): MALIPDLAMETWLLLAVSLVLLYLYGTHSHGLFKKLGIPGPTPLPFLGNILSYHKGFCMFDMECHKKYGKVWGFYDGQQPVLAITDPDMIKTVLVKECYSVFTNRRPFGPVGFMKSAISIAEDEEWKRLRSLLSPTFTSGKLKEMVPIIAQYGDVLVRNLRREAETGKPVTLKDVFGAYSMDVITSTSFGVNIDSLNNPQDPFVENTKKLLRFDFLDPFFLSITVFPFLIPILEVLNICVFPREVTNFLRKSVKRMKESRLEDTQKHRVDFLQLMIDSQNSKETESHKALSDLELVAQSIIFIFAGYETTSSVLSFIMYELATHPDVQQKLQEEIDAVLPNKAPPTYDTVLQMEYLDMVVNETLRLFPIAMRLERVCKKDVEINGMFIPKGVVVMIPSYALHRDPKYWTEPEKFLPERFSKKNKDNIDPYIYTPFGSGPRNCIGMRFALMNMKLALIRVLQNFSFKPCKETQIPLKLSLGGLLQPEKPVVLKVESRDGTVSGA
- experimental_setup: Potency
Collected AC50 values appear next to each entry.

INSERT INTO assay_data (compound, experimental_result) VALUES
  ('COc1cc2cc(Oc3ccc4ccc(=O)oc4c3)c(=O)oc2cc1O [DAPHNORETIN]', '0.501 µM (inconclusive)'),
  ('Cc1ccc([N+](=O)[O-])cc1N', '31.6 µM (inconclusive)'),
  ('O=C(O)c1sccc1S(=O)(=O)Nc1ccc(Cl)cc1', '7.94 µM (inconclusive)');

Q) Using the record for `COC(=O)[C@@H]1C[C@@]2(O)[C@@H](O)[C@@H](O)[C@@H](O)C[C@H]2N1Cc1cc(F)ccc1F` , report its AC50.
A) 25.1 µM (inconclusive)

Q) Thanks! And `CC(=O)NNc1ccccc1` ?
A) 31.6 µM (inconclusive)

Q) What do you have for COc1c(CC=C(C)C)c2c(c3oc(=O)c(-c4ccc(O)cc4)c(O)c13)C=CC(C)(C)O2 [SCANDENIN] ?
A) 20 µM (inconclusive)

Q) Likewise for CCCCCCCC1=CC2=CC(=O)C(C)(OC(C)=O)C(=O)C2=CN1CCc1ccccc1 (stereo not drawn) ?
A) 3.98 µM (inconclusive)

Q) Record: `CC(=O)N1[C@H](C)C=C[C@]1(Cc1ccccc1)C(=O)NCc1ccccn1`
A) 12.6 µM (inconclusive)

----------
- Tested on: H9c2;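 also: cell death induced by hydrogen peroxide oxidative stress; compound pretreatment for 60 min then peroxide exposure for 2 h; potency is for protecting the cells against peroxide damage rather than for killing them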;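 also: confirmatory concentration-response retest of ultra-high-throughput screening hits for modulation of myocardial damage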
- assay_info: cells
- Format: functional, cell-based
- experimental_setup: Rattus norvegicus, H9c2, Myocardium
Active and inactive are the calls of the source.
One label from this list, please: label 1 (active), label 0 (inactive)

# example entries with known answers
INSERT INTO measurements (molecule, target_entity, assigned_label) VALUES
  ('O=C(COC(=O)Cc1nnc(O)c2ccccc12)Nc1ncc(Cl)cc1Cl', 'H9c2', 'label 1'),
  ('Cc1cc(-n2c(C)cc(C(=O)COc3ccc4ccc(=O)oc4c3)c2C)no1', 'H9c2', 'label 1'),
  ('Cc1ccc(C(=O)N/N=C\c2ccc(-c3ccc(Cl)cc3)o2)cn1', 'H9c2', 'label 0');

// switching to the query compound
Q) What is the recorded call for this compound in the test? `COC(=O)c1ccc(N)c(NC=C2C(=O)CC(C)(C)CC2=O)c1`
A) label 1

----------
- target_entity: UniProt:P03070
- Sequence (P03070 whole entry): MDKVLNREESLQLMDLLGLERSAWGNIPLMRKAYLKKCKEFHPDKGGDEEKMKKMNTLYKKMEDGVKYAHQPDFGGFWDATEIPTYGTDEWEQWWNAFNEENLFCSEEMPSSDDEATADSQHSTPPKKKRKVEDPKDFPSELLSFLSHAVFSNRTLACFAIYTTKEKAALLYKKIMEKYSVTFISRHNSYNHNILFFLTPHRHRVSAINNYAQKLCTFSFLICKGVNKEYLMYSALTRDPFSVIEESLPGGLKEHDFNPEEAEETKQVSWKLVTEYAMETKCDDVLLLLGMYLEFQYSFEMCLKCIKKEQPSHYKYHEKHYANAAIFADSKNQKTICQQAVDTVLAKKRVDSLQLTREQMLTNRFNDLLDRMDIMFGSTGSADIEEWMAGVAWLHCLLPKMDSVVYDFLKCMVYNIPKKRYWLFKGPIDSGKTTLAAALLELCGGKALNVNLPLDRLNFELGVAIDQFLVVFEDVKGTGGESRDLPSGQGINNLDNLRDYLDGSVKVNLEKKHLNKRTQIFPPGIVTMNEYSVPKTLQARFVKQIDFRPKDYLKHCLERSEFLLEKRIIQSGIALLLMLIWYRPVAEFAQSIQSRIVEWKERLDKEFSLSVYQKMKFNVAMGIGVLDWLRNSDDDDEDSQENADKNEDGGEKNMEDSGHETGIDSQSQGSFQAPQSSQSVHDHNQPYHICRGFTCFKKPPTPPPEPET
- Type: functional, Betapolyomavirus macacae
Activity calls are given as the source filed them.
assay_endpoint: IC50

INSERT INTO results (compound, assay_endpoint, experimental_result) VALUES
  ('OCc1ccccc1SSc1ccccc1CO', 'IC50', '11.4 µM (active)'),
  ('Nc1ccc2[nH]c(-c3cccs3)nc2c1', 'IC50', '11.9 µM (active)'),
  ('CN(C)c1ccc(NC(=O)CC2NCCNC2=O)cc1 (stereo not drawn)', 'IC50', '10.1 µM (active)');

Q) Could you share which IC50 value was measured for `C[C@@H](NC(=O)/C(C#N)=C/c1ccc(O)c(O)c1)c1ccccc1` ?
A) 7.28 µM (active)

Q) Try the compound CNC(C)Cc1ccccc1Sc1ccc(O)cc1 (stereo not drawn)
A) 94.4 µM (active)

----------
- target_entity: Rac GTPase-activating protein 1 (Homo sapiens)
- Sequence (Q9H0H5 whole entry): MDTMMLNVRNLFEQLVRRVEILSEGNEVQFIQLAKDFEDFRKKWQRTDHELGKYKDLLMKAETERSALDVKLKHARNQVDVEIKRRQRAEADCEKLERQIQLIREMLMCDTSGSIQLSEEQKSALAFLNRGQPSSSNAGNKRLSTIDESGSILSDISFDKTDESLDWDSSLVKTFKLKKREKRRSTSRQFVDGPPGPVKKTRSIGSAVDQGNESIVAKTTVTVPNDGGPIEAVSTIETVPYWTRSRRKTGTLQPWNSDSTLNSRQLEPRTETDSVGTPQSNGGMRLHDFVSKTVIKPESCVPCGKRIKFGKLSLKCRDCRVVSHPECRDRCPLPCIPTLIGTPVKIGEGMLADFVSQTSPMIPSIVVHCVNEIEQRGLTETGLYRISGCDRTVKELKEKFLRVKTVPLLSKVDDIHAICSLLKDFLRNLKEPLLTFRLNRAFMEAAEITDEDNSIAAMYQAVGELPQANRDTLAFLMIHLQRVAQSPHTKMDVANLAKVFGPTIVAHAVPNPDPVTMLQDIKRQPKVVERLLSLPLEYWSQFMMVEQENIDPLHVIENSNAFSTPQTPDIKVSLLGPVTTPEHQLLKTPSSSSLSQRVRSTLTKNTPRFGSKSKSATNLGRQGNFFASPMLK
- assay_info: MgcRacGAP GTPase-activating activity inhibitors, confirmation, biochemical, ADP Hunter fluorescence, primary and confirmatory (AID 624330)
- Format: functional
Calls of active or inactive are those of the source.
assay_endpoint: IC50

Some solved cases for reference:
INSERT INTO measurements (molecule, experimental_result) VALUES
  ('CN(C)/N=C/c1ccc(N2CCOCC2)cc1', '51.2 µM (active)'),
  ('CC(=O)Nc1ccc(NC(=O)C(C)OC(=O)COc2ccc(Nc3ccccc3)cc2)cc1 (centres undefined)', '111 µM (active)');

Q) Query (molecule): `O=C(c1ccco1)N1CCN(Cc2cccc([N+](=O)[O-])c2)CC1` ; field requested: IC50
A) 127 µM (active)

Q) For CC1=NN(c2ccccc2)C(=O)C1/C=C1\NC(=S)NC1=O (centres undefined) then?
A) 238 µM (active)

Q) Please do the same for `COc1ccccc1NS(=O)(=O)c1ccc(C)c(C(=O)N2CCN(c3ccc(O)cc3)CC2)c1` as well.
A) 24.2 µM (active)

Q) Next record, please: `CCN(CC)S(=O)(=O)c1ccc(C)c(NC(=O)CN2CCN(C)CC2)c1`
A) 118 µM (active)

Q) Next molecule up: `C/C(=N\NC(=O)c1ccccc1F)c1ccc2c(c1)Nc1ccccc1S2`
A) 54.7 µM (active)

Q) Would you kindly repeat that for `COc1ccc(OC(=O)COc2cc(C)ccc2C)cc1` ?
A) 37.7 µM (active)

Q) Repeat for the following molecule: `CC(C)Nc1ccc(Nc2ccnc3cc4ccccc4cc23)cc1`
A) 20 µM (active)

Q) // same read-out, input: `Oc1ccc(/C=N/NC(=S)NCCN2CCOCC2)c(O)c1`
A) 20.6 µM (active)

----------
- target_entity: Bcl-2-related protein A1 (Mus musculus);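 also: confirmatory dose–response counterscreen on Bfl-1, used to check hits from a UBC13 polyubiquitin inhibitor campaign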
- Sequence (Q07440 whole entry): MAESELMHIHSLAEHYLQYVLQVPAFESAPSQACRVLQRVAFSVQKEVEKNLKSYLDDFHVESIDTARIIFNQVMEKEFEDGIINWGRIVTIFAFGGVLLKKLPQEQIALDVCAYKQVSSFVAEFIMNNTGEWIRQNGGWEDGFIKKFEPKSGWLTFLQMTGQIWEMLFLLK
- Type: functional
Active and inactive are the calls of the source.
Pick one and only one: active, inactive

Worked set:
INSERT INTO assay_data (molecule, assigned_label) VALUES
  ('CCc1ccc2nc(N(CCCN(C)C)C(=O)c3ccc(C(=O)c4ccccc4)cc3)sc2c1', 'inactive'),
  ('COc1ccc(OC)c2sc(N(CCCN(C)C)C(=O)c3ccc(S(=O)(=O)N4CCc5ccccc5C4)cc3)nc12', 'active'),
  ('CCOC(=O)/C(=C\c1cccc(O)c1)c1nc(O)c2c(C)c(C)sc2n1', 'inactive');

Please look at the following compound next.
Q) Please let me know the test result on file for `CCCOc1ccc(C(=O)NNC(=S)NC(=O)CC)cc1` .
A) inactive

----------
Consider the following IC50 values measured on Estrogen receptor (Homo sapiens, UniProt P03372).
Sequence (P03372 whole entry): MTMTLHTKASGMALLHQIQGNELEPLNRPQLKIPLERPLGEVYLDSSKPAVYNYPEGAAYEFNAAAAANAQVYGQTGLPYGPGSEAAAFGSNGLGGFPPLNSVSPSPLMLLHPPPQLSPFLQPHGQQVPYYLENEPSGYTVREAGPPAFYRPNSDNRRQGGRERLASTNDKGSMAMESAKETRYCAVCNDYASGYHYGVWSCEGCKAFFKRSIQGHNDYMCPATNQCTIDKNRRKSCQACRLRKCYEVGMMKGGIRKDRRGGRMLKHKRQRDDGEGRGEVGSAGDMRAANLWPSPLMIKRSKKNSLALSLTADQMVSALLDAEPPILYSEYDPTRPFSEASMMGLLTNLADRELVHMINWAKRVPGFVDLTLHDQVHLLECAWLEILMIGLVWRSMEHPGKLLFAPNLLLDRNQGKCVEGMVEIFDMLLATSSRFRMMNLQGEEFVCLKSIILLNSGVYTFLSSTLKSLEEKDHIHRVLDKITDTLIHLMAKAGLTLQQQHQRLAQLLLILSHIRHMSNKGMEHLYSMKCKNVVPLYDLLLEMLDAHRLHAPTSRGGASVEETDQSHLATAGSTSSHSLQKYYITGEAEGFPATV
Calls of active or inactive are those of the source.

Examples from the recorded data:
INSERT INTO assay_data (molecule, assay_endpoint, experimental_result) VALUES
  ('O=C(c1cc(-c2ccco2)on1)N1CCCc2ccccc21', 'IC50', '> 50 µM (not active)'),
  ('CS(=O)(=O)c1ccc2nc(NC(=O)CCC(=O)c3cccs3)sc2c1', 'IC50', '7.11 µM (active)'),
  ('Cc1noc(C)c1COc1ccc(C(=O)OCC(=O)N2c3ccccc3NC(=O)C2(C)C)cc1', 'IC50', '8.74 µM (active)');

Q) Give its IC50 value. Item: Cn1c(SCc2cc(=O)n3cc(Br)ccc3n2)nnc1C1COc2ccccc2O1 (centres undefined)
A) 25.2 µM (active)

----------
- target_entity: Protein RecA (Mycobacterium tuberculosis)
- assay_info: Fluorescence Cell-Free Homogeneous Dose Retest to Identify Inhibitors of RecA-Intein Splicing Activity. [Related pubchem assays (depositor defined):AID2097, AID2223, AID489010, AID492950]
- Type: functional
Active and inactive are the calls of the source.
Pick from Y (active), N (inactive) when you respond.

INSERT INTO assay_data (compound, target_entity, assigned_label) VALUES
  ('O=S(=O)(Cc1ccccc1)c1cnc2ccccc2n1', 'Protein RecA (Mycobacterium tuberculosis)', 'Y'),
  ('O=C(CSc1ncnc2c1nnn2Cc1ccc(F)cc1)NCC1CCCO1 (stereo not given)', 'Protein RecA (Mycobacterium tuberculosis)', 'Y'),
  ('O=C(N/N=C\c1ccc(-c2ccccc2[N+](=O)[O-])o1)C1COc2ccccc2O1 (stereo not given)', 'Protein RecA (Mycobacterium tuberculosis)', 'Y'),
  ('CCS(=O)(=O)C1=NN2C(=N)/C(=C\c3ccc(OC(=O)c4ccco4)cc3)C(=O)N=C2S1', 'Protein RecA (Mycobacterium tuberculosis)', 'Y'),
  ('CC1(C)CC2(C)OC(=N)C1(C#N)C2(C#N)C#N (stereo not given)', 'Protein RecA (Mycobacterium tuberculosis)', 'Y'),
  ('Cc1noc(C)c1CSCC(=O)Oc1ccc(N(C)S(=O)(=O)c2ccccc2)cc1', 'Protein RecA (Mycobacterium tuberculosis)', 'Y'),
  ('CC1=NN(c2ccccc2)C(=O)/C1=C\c1ccc(Oc2ccc([N+](=O)[O-])cc2[N+](=O)[O-])cc1', 'Protein RecA (Mycobacterium tuberculosis)', 'Y'),
  ('Cc1ccc(NC(=O)CSc2ncnc3ccccc23)cc1S(=O)(=O)N1CCCCCC1', 'Protein RecA (Mycobacterium tuberculosis)', 'Y');

Q) Returns: the outcome recorded for `COc1ccccc1/C=N/Nc1cc(N(C)C)nc(N(C)C)n1` in this assay.
A) Y

Q) Next compound: Cc1n[nH]c2c1C(c1cnn(C)c1)C(C#N)=C(N)O2 (stereo not given)
A) Y

Q) Same question for COc1cccc(N2CC(C(=O)Nc3nnc(SCC(=O)c4ccccc4)s3)CC2=O)c1 (stereo not given) please.
A) N

Q) Moving on to `[O-][N+]1=c2ccc(Nc3ccccc3)cc2=NC12CCCCC2`
A) Y

Q) Query `CCc1ccc(S(=O)(=O)/N=C2\C=C(Nc3ccc(C(=O)O)cc3)C(=O)c3ccccc32)cc1` next
A) Y

Q) Now give it for `COc1cccc(Nc2c([N+](=O)[O-])cncc2[N+](=O)[O-])c1` too.
A) Y

Q) Let us now turn to `NC(=O)c1c(-c2cccs2)csc1N`
A) Y
